// provenance: paper PMC9253517

- target.of.assay: SARS-CoV-2 Wuhan-Hu-1 NTD (SARS-CoV-2, UniProt P0DTC2 14-307)
- assay.overview: cell-based or functional assay
Below, each entry is listed alongside its reported neutralisation IC50, WT (293TAce2).

- JN018 (antibody, V domains shown) VH: QVQLQESGPGLVKPSETLSLTCTVSGGSISGSYWSWMRQPAGKPLEWIGRIYVSGSYNRNPSLSSRVTVSEDTAKNQISLRLTSVTAADTAVYYCAREIMGWYFDLWGRGTLVTVSS VL: EIVMTQSPGTLSVSPGERATLSCRASQSVRSSLAWYQQKPGQAPRLLIYDASTRATGIPARFSGSGSGTEFTLTISSLQSEDFAIYLCQQYYNWPSYTFTQGTKLEIK: > 1 µg/mL
- JN015 (antibody, V domains shown) VH: QLQLQESGPGLVKPSETLSLTCTVSGGSISGSSYYWGWIRQPPGKGLEWFGSIYYSGTTYYNPSLKSRVAISVDTSKKQFSLKLSSVTAADTAVYYCAARYFDWSVEYWGQGTLVTVSS VL: QSALTQPRSVSGSPGQSVTISCTGTSSDVGGYNYVSWYQQQPGKAPKLMIYDVSKRPSGVPDRFSGSKSGNTASLTISGLQAEDEADYHCCSYAGSYTYWLFGGGTKLTVL: > 1 µg/mL

Consider the binder JN144 (antibody, V domains shown) VH: QVQLVQSGPEVKKPGASVKVSCKASDYTFTSYDIIWVRQAPGQGLEWMGWISTHNGNTNYAQELQGRVTMTRETSTSTAHMELRSLRSDDTAVYYCARGPNRYLRLLEWSIPADWFFDLWGRGTLVTVSS VL: EIVLTQSPGTLSLSPGDRATLSCRASQSVPSTSIAWYQQKPGQAPRLLFHGAASRAIGIPDRFSGSGSGTDFTLTISRLEPEDSAVYYCQHCGDSPPLLTFGPGTKVDIK and give its recorded neutralisation IC50, WT (293TAce2).
> 1 µg/mL
